// provenance: patent US20230126400A1

assay.target: human MS4A4A (human, UniProt Q96JQ5 1-239)
protocol.summary: FACS, HEK293, supernatant
Listed next: entries and their corresponding Human 4A:parental cell ratio.
# unit: ratio | format: bare number

These solved cases illustrate the format of a correct answer.
anti-MS4A4A antibody 4A-15 (antibody, V domains shown, murine hybridoma antibody) VH: EIQLQQTGPDLVKPGASVKISCKASGYSFTDYVILWVKQSHGKTLEWIGHINPYYANSDYNVNFRGKATLTVDKSSSTAHMQLNSLTSEDSAVYYCVRYGSGMDYWGQGTSVTVSS VL: DVLMTQTPLSLPVSLGDQASISCRSSQSIVHSDGNTYLEWYLQKPGQSPKLLIYKVSNRFSGVPDRFSGSGSGTDFTLKISRVEAEDLGVYYCFQGSHFPLTFGAGTKLELK = 8.13
anti-MS4A4A antibody 4A-4 (antibody, V domains shown, murine hybridoma antibody) VH: EIQLQQTGPDLVKPGTSVKISCKASGYSFTDYVLVWVKQSHGKSLEWIGNINPYYGNSDYNLKFEGKARLTVDRSSSTAYMQLNSLTSEDSAVYYCARYGLYAMDFWGQGTSVTVSS VL: DVLMTQTPLSLPVSLGDQASISCRSSQTIVHSNGNSYLEWYLQKPGQSPKLLIYKVSNRFSGVPDRFSGSGSGTVFTLKISRVEAEDLGVYFCFQSSHVPLTFGVGTKLELK = 4.78

Prompt line: Human 4A:parental cell ratio lookup needed for anti-MS4A4A antibody 4A-8 (antibody, V domains shown, murine hybridoma antibody) VH: EVKLVESGGGLVQPGGSLKLSCATSGFTFSDYYMYWVRQTPEKRLEWVAYINNGGGSTYYPDTVKGRFTISRDNAKNTLYLQMSRLKSEDTAMYYCARQGNLIYYSGSSLFAYWGQGTMVTVSS VL: DVLMTQTPLSLPVSLGDQASISCRSSQSIVHSNRNTYLEWYVQKPGQSPKLLIYKVSNRFSGVPDRFSGSGSGTDFTLKISRVEAEDLGVYYCFQGSHVPWTFGGGTKLEIK , thanks.
Response line: 5.7
